System: MOLT-4 leukemia
run-description: NCI tumour cell line growth inhibition, 48 h

{"columns": ["molecule", "TGI"],
 "data": [
  ["COC(=O)C(C)NP(=O)(N1CC1)N1CC1 (stereo not given)", "> 100 µM"],
  ["COc1cc(OCc2ccc3nc(-c4ccccc4)c(Cl)nc3c2)cc(OC)c1OC", "> 100 µM"],
  ["CCOC(=O)C1=CN/C(=C(/C)C(=O)OC)SC1C(=O)OCC (stereo not given)", "> 100 µM"],
  ["O=C(N/N=C/c1ccc2c(c1)OCO2)Nc1ccccc1Cl", "> 100 µM"],
  ["COC1CC(C)C(OC)C2=CC(=O)C=C(NC(=O)/C(C)=C/C=C\\C(C)C(OC(N)=O)/C(C)=C\\C(C)C1OC)C2=O (stereo not given)", "1.04 µM"],
  ["COc1ccccc1N1C(=O)/C(=C/c2ccc(N(CCC#N)CCC#N)cc2C)N=C1c1cc([N+](=O)[O-])ccc1Cl", "> 100 µM"],
  ["CN(C)C=C1C(=O)c2c(Br)sc(Br)c2C1=O", "> 100 µM"],
  ["O=C(Nc1cccc2ccccc12)Nn1cnnc1", "> 100 µM"],
  ["COC(=O)c1c(O)ccc2c1c1c(n2Cc2ccccc2)C(=O)c2ccccc2C1=O", "25.3 µM"],
  ["Cc1nc2sc(C(=O)Nc3cccc(Cl)c3C)c(N)c2cc1C(=O)/C=C/c1ccccc1", "> 50 µM"]
]}
